# System: HeLa human cervix carcinoma cells
# protocol-text: MTT antiproliferative assay, HeLa
# Format: cell-based
# experimental-setup: 72 h, mean of four parallel experiments, read-out: IC50 (µM) ± SD HeLa
assay-metric: IC50 (µM)
Enter your answer as a number in µM; do not include the unit.

Data request: # IC50 lookup, item N.N.[Cl][Pt][Cl] [cisplatin, reference compound]
Data returned: 2.3

----------
# Tested on: T-47D ductal carcinoma cells
# protocol-text: MTT antiproliferative assay, T-47D
# Format: cell-based, human
# experimental-setup: 72 h, mean of four parallel experiments, read-out: IC50 (µM) ± SD T-47D
assay-metric: IC50 (µM)
Enter your answer as a number in µM; do not include the unit.

Data request: # IC50 lookup, item N.N.[Cl][Pt][Cl] [cisplatin, reference compound]
Data returned: 5.9

----------
# Test system: MRC-5 human embryonal lung fibroblast cell line
# protocol-text: MTT antiproliferative assay, MRC-5 normal cells
# Type: cell-based
# experimental-setup: 72 h, MRC-5 normal fibroblasts, mean of four parallel experiments, read-out: IC50 (µM) ± SD MRC-5
assay-metric: IC50 (µM)
Enter your answer as a number in µM; do not include the unit.

Data request: # IC50 lookup, item N.N.[Cl][Pt][Cl] [cisplatin, reference compound]
Data returned: 0.6

----------
# Test system: A2780 human ovarian cancer cell line
# protocol-text: MTT antiproliferative assay, A2780
# Assay type: cell-based
# experimental-setup: 72 h, A2780, mean of four parallel experiments, read-out: IC50 (µM) ± SD A2780
assay-metric: IC50 (µM)
Enter your answer as a number in µM; do not include the unit.

Data request: # IC50 lookup, item N.N.[Cl][Pt][Cl] [cisplatin, reference compound]
Data returned: 3.6

----------
# Test system: HTB-26 breast adenocarcinoma cells
# protocol-text: MTT antiproliferative assay, HTB-26
# Assay type: cell-based, human
# experimental-setup: 72 h, HTB-26, mean of four parallel experiments, read-out: IC50 (µM) ± SD HTB-26
assay-metric: IC50 (µM)
Enter your answer as a number in µM; do not include the unit.

Data request: # IC50 lookup, item N.N.[Cl][Pt][Cl] [cisplatin, reference compound]
Data returned: 20.1

----------
# Tested on: KCR, drug-resistant subline of the human breast cancer MCF-7
# protocol-text: MTT antiproliferative assay, KCR
# Format: cell-based
# experimental-setup: Homo sapiens, MCF7, 72 h, mean of four parallel experiments, read-out: IC50 (µM) ± SD KCR
In this section, each of the compounds is paired with its reported IC50.
Enter your answer as a number in µM; do not include the unit.

Check out these entries, answers already filled in.
compound	IC50 / µM
C=Cc1cc(O)c(CO)c2c1-c1ccc(O)c(C)c1CC2 [Compound 1, maritin A]	57.6
C=Cc1cc(O)cc2c1-c1cc(-c3cc4c(c(C)c3O)CCc3cc(O)cc(C=C)c3-4)c(O)c(C)c1CC2 [Compound 11, effususin A]	19.6
C=Cc1cc(O)cc2c1-c1ccc(Oc3cc4c(c(C)c3O)CCc3cc(O)cc(C=C)c3-4)c(C)c1CC2 [Compound 4, maritin D]	16.2
Cc1c(O)ccc2c1CCc1cc(O)cc(C=O)c1-2 [Compound 7]	70.6

Switching to the query record.
Data request: # IC50 lookup, item C=Cc1cc(C)cc2c1-c1ccc(O)c(C)c1CC2 [Compound 9, juncunol]
Data returned: 68.4

All values here come from paper PMC7918049.
